target: VEGFR-2 kinase (Homo sapiens (Human), UniProt P35968)
Sequence (P35968 20-1356): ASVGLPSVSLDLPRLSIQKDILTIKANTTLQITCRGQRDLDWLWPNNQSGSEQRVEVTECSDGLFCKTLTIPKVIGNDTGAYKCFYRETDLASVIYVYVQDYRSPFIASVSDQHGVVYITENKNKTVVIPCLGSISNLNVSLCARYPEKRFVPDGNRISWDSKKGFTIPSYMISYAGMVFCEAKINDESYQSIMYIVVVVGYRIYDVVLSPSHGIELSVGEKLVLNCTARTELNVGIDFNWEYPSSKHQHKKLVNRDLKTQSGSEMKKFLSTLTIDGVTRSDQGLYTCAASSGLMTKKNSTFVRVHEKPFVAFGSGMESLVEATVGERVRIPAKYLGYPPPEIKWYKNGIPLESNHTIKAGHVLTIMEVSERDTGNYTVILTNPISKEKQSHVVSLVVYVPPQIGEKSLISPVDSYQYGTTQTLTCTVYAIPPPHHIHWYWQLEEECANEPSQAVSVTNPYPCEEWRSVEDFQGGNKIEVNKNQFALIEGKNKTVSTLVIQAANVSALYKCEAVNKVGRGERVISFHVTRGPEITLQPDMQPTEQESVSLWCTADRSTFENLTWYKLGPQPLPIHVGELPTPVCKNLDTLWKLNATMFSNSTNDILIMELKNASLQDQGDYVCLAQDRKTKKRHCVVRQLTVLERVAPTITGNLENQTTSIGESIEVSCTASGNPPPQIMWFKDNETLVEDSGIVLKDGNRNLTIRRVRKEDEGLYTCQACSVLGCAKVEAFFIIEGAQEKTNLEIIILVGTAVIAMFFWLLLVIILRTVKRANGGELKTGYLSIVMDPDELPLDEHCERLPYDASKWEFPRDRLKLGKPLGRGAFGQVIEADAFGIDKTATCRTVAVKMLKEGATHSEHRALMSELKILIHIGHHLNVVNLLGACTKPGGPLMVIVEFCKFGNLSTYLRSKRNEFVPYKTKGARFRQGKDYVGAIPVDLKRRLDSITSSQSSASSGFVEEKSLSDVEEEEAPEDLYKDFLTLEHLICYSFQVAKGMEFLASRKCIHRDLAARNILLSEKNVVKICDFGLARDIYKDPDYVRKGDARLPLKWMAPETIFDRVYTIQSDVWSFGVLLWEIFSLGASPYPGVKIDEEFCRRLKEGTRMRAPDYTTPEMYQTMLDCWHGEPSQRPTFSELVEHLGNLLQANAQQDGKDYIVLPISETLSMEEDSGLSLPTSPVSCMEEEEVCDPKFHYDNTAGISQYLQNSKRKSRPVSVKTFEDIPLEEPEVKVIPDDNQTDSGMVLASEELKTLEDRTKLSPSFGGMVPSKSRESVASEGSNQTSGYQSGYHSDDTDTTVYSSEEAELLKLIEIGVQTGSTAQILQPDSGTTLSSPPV
pIC50: −log10 of the molar value.
Consider the following compounds and their measured pIC50 readings.

# example entries with known answers
COCCN(C)CCCOc1cc2nccc(Oc3ccc(NC(=O)c4cn(C(C)C)c(=O)n(-c5ccc(F)cc5)c4=O)cc3F)c2c2c1OCCO2 [Example 95] ... 5.30 to 6.30
COc1cc2nccc(Oc3ccc(NC(=O)c4cn(C)c(=O)n(-c5ccc(F)cc5)c4=O)cc3F)c2c2c1OCCO2 [Example 13] ... 5.30 to 6.30

pIC50 for COc1cc2nccc(Oc3ccc(NC(=O)c4cn(CC(=O)O)c(=O)n(-c5ccc(F)cc5)c4=O)cc3F)c2c2c1OCCO2 [Example 104] is < 5.30

pIC50 for O=C(Nc1ccc(Oc2ccnc3cc(OCCCN4CCCCC4)c4c(c23)OCCO4)c(F)c1)c1cccn(-c2ccc(F)cc2)c1=O [Example 31] is ≥ 7.30
